Experiment: NCI Yeast Anticancer Drug Screen. Data for the mgt1 strain (AID 153)
Conditions: S. cerevisiae mgt1 mutant growth inhibition; at 1.2 µM; hits give high values
The panel holds about 79,000 compounds, 15% with a hit somewhere; the sample as a whole holds those more often.
measuredAttribute: growth inhibition (%)
Enter your answer as a number in %; do not include the unit.

stdin: Give growth inhibition for "O=[N+]([O-])c1cc([As](Br)c2ccc(O)c([N+](=O)[O-])c2)ccc1O"
stdout: 28

stdin: Give growth inhibition for "NNc1ccccc1Cl"
stdout: 25

stdin: Give growth inhibition for "COc1ccc([N+]2=NC(c3ccc([N+](=O)[O-])cc3)=NN(c3ccccc3)C2)cc1"
stdout: -1

stdin: Give growth inhibition for CCCCN(CCCC)CC(C(C)=O)C(c1ccccc1)c1c(O)c2ccccc2oc1=O (centres undefined)
stdout: 1

stdin: Give growth inhibition for "CSc1ccccc1[As](C)C"
stdout: -1

stdin: Give growth inhibition for "Cc1ccc2c(c1N)C(=O)c1ccccc1C2=O"
stdout: -3

stdin: Give growth inhibition for O=C(O)C1C2CCC(C2)C1c1ccccc1 (centres undefined)
stdout: -1

stdin: Give growth inhibition for "CC1=C(N2CC2)C(=O)c2ccccc2C1=O"
stdout: 0

stdin: Give growth inhibition for "CC[C@@]1(O)C(=O)OCc2c1cc1n(c2=O)Cc2cc3c(NC(=O)CN)cccc3nc2-1"
stdout: -3

stdin: Give growth inhibition for "CC1=C(CO)C2=C(C)C3(CC3)[C@@](C)(O)C(=O)C2=C1"
stdout: -2

stdin: Give growth inhibition for "CCOP(=S)(S)OCC.[Pd]"
stdout: -2

stdin: Give growth inhibition for "O=C(O)CCCOc1cc(Cl)c(Cl)cc1Cl"
stdout: -17

stdin: Give growth inhibition for "[N-]=[N+]=C1C(Cl)=C(Cl)C(Cl)=C1Cl"
stdout: -1

stdin: Give growth inhibition for "Cc1cccc(NC(=O)CBr)c1"
stdout: -2

stdin: Give growth inhibition for "Cc1c([N+](=O)[O-])oc2ccc3ccccc3c12"
stdout: -8

stdin: Give growth inhibition for "CS(=O)(=O)OCCN(CCOS(C)(=O)=O)c1ccc(C=O)cc1"
stdout: 5

stdin: Give growth inhibition for "C[C@]12CC[C@H](O)CC1=CC[C@@H]1[C@@H]2CC[C@]2(C)C(=O)CC[C@@H]12"
stdout: -65

stdin: Give growth inhibition for "CCN(CCCl)c1cc(CN(C)C)cc(NC(=O)c2ccc(C(=O)Nc3cc(CN(C)C)cc(N(CC)CCCl)c3)cc2)c1"
stdout: 5

stdin: Give growth inhibition for OC(c1ccc(Br)cc1)C(Cl)(Cl)Cl (centres undefined)
stdout: 20

stdin: Give growth inhibition for "COc1ccc(/C=C(/C)[N+](=O)[O-])cc1"
stdout: -22

stdin: Give growth inhibition for "CCCCCCCCCC[Se]C#N"
stdout: -2

stdin: Give growth inhibition for C[C@]12CCc3nonc3C1CC[C@@H]1C2CC[C@]2(C)C(=O)CCC12 (some centres undefined)
stdout: 8

stdin: Give growth inhibition for CCOP(=O)(CC(C)P(=O)(OCC)OCC)OCC.C[CH2][Sn]([Cl])([Cl])[CH2]C (centres undefined)
stdout: -3

stdin: Give growth inhibition for COC(=O)C1C2c3ccccc3C(c3ccccc32)C1C(=O)OC (centres undefined)
stdout: -2

stdin: Give growth inhibition for CC1(Cl)CC(C)(/C=C/Cl)C(Cl)CC1Cl (centres undefined)
stdout: 2

stdin: Give growth inhibition for "CN(N=O)C(=O)NNC(=O)N(C)N=O"
stdout: 9

stdin: Give growth inhibition for COc1cc([C@@H]2c3cc4c(cc3C[C@@H]3COC(=O)C32)OCO4)cc(OC)c1O (some centres undefined)
stdout: 29

stdin: Give growth inhibition for "NCCc1ccc(OCc2ccccc2)c(OCc2ccccc2)c1"
stdout: 2

stdin: Give growth inhibition for "Cc1ccc2nc3sc(=O)sc3nc2c1"
stdout: 22

stdin: Give growth inhibition for "Oc1ccc2nc3ccccc3nc2c1"
stdout: -2

stdin: Give growth inhibition for "CNC(=O)ON(C(C)=O)C(=O)NC"
stdout: -9

stdin: Give growth inhibition for "O=C(Nc1cc(Cl)ccc1Cl)C(Cl)(Cl)Cl"
stdout: 1

stdin: Give growth inhibition for Cc1ccc2c(c1)C1(C)c3cc(C)ccc3SP1S2 (centres undefined)
stdout: 10

stdin: Give growth inhibition for Cc1c(N)nc([C@H](CC(N)=O)NC[C@H](N)C(N)=O)nc1C(=O)N[C@H](C(=O)N[C@H](C)[C@@H](O)[C@H](C)C(=O)N[C@H](C(=O)NCCc1nc(-c2nc(C(=O)NCCC[S+](C)C)cs2)cs1)[C@@H](C)O)C(OC1OC(CO)C(O)C(O)C1OC1OC(CO)C(O)C(OC(N)=O)C1O)c1cnc[nH]1 (some centres undefined)
stdout: -3

stdin: Give growth inhibition for C[C@]12CCC3[C@@H](CC[C@@H]4c5nonc5CC[C@]34C)C1CCC2=O (some centres undefined)
stdout: 20

stdin: Give growth inhibition for "C/C(=N\O)c1ccc2ccc3ccccc3c2c1"
stdout: 1

stdin: Give growth inhibition for "Oc1cccc2cccnc12"
stdout: 4

stdin: Give growth inhibition for "O=Cc1ccc(C(F)(F)F)cc1.[C-]#[O+].[C-]#[O+].[C-]#[O+].[Cr]"
stdout: 1

stdin: Give growth inhibition for "C=C[C@H]1CN2CC[C@H]1C[C@@H]2[C@@H](O)c1ccnc2ccccc12"
stdout: 2

stdin: Give growth inhibition for CCC1(O)C(=O)OCc2c1cc1n(c2=O)Cc2cc3ccccc3nc2-1 (centres undefined)
stdout: -11

stdin: Give growth inhibition for "CCNCC(=O)O[C@]1(CC)C(=O)OCc2c1cc1n(c2=O)Cc2cc3ccccc3nc2-1"
stdout: 22

stdin: Give growth inhibition for "O=c1oc2ccccc2c(O)c1C(c1ccc2ccccc2c1)c1c(O)c2ccccc2oc1=O"
stdout: 17

stdin: Give growth inhibition for COC(=O)C1c2cc3c(c(O)c2C(O)CC1(C)O)C(=O)c1c(O)cc2c(c1C3=O)OC1OC2(C)C(O)C(N(C)C)C1O (centres undefined)
stdout: -7

stdin: Give growth inhibition for "Cc1cc[n+](C2=C(Nc3cccc(C(F)(F)F)c3)C(=O)c3ccccc3C2=O)cc1"
stdout: -1

----------
Assay: NCI Yeast Anticancer Drug Screen. Data for the bub3 strain (AID 167)
Conditions: S. cerevisiae bub3 mutant strain, at 5.0 µM (retest, dose inferred, filed as 0.5), hits give high values
The panel holds about 79,000 compounds, 15% with a hit somewhere; the sample as a whole holds those more often.
measuredAttribute: growth inhibition (%)
Enter your answer as a number in %; do not include the unit.

stdin: Give growth inhibition for O=c1ccn(C2OC(CO)C(O)C2O)c(=O)[n]1[Hg][c]1ccccc1 (centres undefined)
stdout: 100

stdin: Give growth inhibition for "C[CH2][Sn]([CH2]C)([CH2]C)[O]C(=O)CO"
stdout: 7

stdin: Give growth inhibition for "O=C(COc1ccc(Cl)c(Cl)c1)N(Cc1ccccc1)Cc1ccc[n+](Cc2ccc(S(=O)(=O)F)cc2)c1"
stdout: 3

stdin: Give growth inhibition for COC12[C@@H]3N[C@@H]3CN1C1=C(C(=O)C(NCCSSCCNC3=C(C)C(=O)C4=C(C3=O)C(COC(N)=O)[C@]3(OC)C5N[C@@H]5CN43)=C(C)C1=O)[C@@H]2COC(N)=O (some centres undefined)
stdout: 17

stdin: Give growth inhibition for "Cc1cc([N+](=O)[O-])c(O)c([N+](=O)[O-])c1C"
stdout: 11

stdin: Give growth inhibition for "Cc1oc2c([N+](=O)[O-])cccc2c1[N+](=O)[O-]"
stdout: 99

stdin: Give growth inhibition for "O=[N+]([O-])c1ccc(-n2nc3ccc4c(no[n+]4[O-])c3[n+]2[O-])c([N+](=O)[O-])c1"
stdout: -14

stdin: Give growth inhibition for CCCCCCCC/C=C\CCCCCCCCN1CC(C(=O)[O][Pb]([CH2]C)([CH2]C)[CH2]C)CC1=O (centres undefined)
stdout: 4

stdin: Give growth inhibition for "O=C(Cl)c1ccccn1"
stdout: 4

----------
Assay: NCI Yeast Anticancer Drug Screen. Data for the mec2-1 strain (AID 157)
Conditions: S. cerevisiae mec2-1 strain, at 50.0 µM, hits give high values
This is part of a sample that, as a whole, favours compounds with a hit. Of some 79,000 tested, about 15% had one in any assay.
Rule: TRUE for growth inhibition not less than 90%, FALSE for anything less.

stdin: growth inhibition >= 90% for "Nc1nc(N)c(-c2ccc(Cl)c(Cl)c2)c(CCc2ccc(CNC(=O)Nc3ccc(S(=O)(=O)F)cc3)cc2)n1" ?
stdout: FALSE

stdin: growth inhibition >= 90% for "CC(=O)[O][Hg][c]1ccccc1N" ?
stdout: TRUE

stdin: growth inhibition >= 90% for COc1cccc(C(Cc2ccc(N3C(N)=NC(N)=NC3(C)C)cc2)C(=O)Nc2ccc(S(=O)(=O)F)cc2)c1 (stereo not given) ?
stdout: TRUE

stdin: growth inhibition >= 90% for CC(O[Si](c1ccccc1)(c1ccccc1)C(C)(C)C)[C@H](NC(=O)OC(C)(C)C)C(=O)O (stereo not given in full) ?
stdout: FALSE

stdin: growth inhibition >= 90% for "O=C(CCl)OCC(Cl)Cl" ?
stdout: FALSE

stdin: growth inhibition >= 90% for CCC1(O)C(=O)OCc2c1cc1n(c2=O)Cc2cc3ccc(C#N)cc3nc2-1 (stereo not given) ?
stdout: FALSE

stdin: growth inhibition >= 90% for "CN(C)CCCNc1ccnc2c(COC(=O)N(CCCl)CCCl)ccc([N+](=O)[O-])c12" ?
stdout: FALSE

stdin: growth inhibition >= 90% for CC1(C)OCC(COC(=O)C=[N+]=[N-])O1 (stereo not given) ?
stdout: FALSE

Values were extracted from PubChem BioAssay (NCI).
